meta.source: ChEMBL document CHEMBL5247644

Target: Sucrase-isomaltase, intestinal (Rattus norvegicus, UniProt P23739)
Sequence (P23739 1-1013 limits assumed): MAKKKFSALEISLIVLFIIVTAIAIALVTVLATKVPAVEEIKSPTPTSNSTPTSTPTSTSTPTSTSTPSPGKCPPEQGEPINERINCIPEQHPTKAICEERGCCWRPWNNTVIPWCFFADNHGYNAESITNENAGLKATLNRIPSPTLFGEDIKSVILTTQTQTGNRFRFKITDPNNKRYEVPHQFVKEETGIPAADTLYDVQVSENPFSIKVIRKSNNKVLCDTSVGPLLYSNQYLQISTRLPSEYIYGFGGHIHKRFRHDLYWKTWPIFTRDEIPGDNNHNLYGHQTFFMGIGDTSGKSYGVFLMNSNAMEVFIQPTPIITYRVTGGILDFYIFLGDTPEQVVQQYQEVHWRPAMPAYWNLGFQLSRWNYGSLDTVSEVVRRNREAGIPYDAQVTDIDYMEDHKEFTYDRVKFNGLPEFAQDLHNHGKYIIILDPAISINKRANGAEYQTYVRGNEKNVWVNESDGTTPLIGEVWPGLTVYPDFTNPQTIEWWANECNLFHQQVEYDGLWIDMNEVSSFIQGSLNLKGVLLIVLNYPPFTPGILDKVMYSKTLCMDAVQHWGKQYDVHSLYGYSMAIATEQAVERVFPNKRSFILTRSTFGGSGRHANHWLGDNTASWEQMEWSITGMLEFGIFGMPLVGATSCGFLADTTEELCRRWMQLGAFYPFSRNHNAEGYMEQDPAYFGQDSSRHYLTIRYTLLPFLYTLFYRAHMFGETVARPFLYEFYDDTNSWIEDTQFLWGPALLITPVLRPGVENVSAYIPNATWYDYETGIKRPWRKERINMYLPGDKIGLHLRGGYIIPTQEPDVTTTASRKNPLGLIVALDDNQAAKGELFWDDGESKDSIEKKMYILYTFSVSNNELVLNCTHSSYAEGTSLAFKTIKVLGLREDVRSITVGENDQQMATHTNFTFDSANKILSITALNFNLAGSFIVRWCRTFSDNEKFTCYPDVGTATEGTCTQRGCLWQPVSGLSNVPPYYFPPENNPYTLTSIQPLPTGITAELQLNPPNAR
Sequence (P23739 1014-1841 limits assumed): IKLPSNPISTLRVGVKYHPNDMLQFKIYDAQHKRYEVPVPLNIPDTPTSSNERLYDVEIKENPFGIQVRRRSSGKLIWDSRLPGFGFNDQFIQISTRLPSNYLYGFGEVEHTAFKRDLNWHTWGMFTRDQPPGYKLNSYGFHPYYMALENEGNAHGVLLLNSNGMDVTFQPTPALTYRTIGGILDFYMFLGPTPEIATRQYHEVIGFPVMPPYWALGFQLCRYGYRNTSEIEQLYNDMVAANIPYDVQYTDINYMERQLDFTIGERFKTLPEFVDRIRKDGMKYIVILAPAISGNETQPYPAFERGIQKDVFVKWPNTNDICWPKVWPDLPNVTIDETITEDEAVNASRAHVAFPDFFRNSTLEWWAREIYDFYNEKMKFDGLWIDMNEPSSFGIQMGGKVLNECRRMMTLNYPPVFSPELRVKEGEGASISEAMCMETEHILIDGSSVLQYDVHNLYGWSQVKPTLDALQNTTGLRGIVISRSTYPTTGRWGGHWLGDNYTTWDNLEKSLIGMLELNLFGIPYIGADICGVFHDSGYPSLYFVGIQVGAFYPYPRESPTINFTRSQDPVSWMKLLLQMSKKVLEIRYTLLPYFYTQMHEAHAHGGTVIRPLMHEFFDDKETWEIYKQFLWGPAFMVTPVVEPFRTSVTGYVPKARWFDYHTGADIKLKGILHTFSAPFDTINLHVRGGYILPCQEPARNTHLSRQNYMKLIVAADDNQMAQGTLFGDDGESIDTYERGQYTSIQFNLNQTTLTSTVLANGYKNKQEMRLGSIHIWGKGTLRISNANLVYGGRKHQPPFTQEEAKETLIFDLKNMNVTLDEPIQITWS
Quantity kind: Ki
I'd appreciate it if you wrote the number followed by its unit.

If you can, please state the reported Ki value of Cl.O=[N+]([O-])c1ccccc1C1OC[C@@H](O)[C@@H]([C@H](O)C[S@+]2C[C@@H](O)[C@H](O)[C@H]2CO)O1 (stereo partly specified) .
352 nM

---

Here, each record is paired with measured IC50 data.
Experiment: Inhibition of maltase in rat small intestinal brush border membrane vesicles using maltose as substrate incubated for 30 mins by glucose-oxidase method
Format: cell membranes, Small intestine, Membrane vesicle
Give the value in nM but do not write nM after it.

OC[C@@H]1[C@@H](O)[C@H](O)C[S@@+]1C[C@@H](O)[C@H]1OC(c2cccc(F)c2)OC[C@H]1O (some centres undefined)    1700
OC[C@@H]1[C@@H](O)[C@H](O)C[S@@+]1C[C@@H](O)[C@H]1OC(c2ccccc2C(F)(F)F)OC[C@H]1O.[Cl-] (some centres undefined)    230
O=[N+]([O-])c1cccc(C2OC[C@@H](O)[C@@H]([C@H](O)C[S@+]3C[C@@H](O)[C@H](O)[C@H]3CO)O2)c1 (some centres undefined)    6700

Okay, now this molecule:
If you can, please state the reported IC50 value of OC[C@@H]1[C@@H](O)[C@H](O)C[S@@+]1C[C@@H](O)[C@H]1OC(c2cccc(C(F)(F)F)c2)OC[C@H]1O (some centres undefined) .
1500
